# target or test system: T1, biotinylated recombinant human αvβ6 integrin (human, UniProt P06756 31-1048; P18564 22-709, biotin (chain and site not stated) | biotin (chain and site not stated))
# T1 chain 1: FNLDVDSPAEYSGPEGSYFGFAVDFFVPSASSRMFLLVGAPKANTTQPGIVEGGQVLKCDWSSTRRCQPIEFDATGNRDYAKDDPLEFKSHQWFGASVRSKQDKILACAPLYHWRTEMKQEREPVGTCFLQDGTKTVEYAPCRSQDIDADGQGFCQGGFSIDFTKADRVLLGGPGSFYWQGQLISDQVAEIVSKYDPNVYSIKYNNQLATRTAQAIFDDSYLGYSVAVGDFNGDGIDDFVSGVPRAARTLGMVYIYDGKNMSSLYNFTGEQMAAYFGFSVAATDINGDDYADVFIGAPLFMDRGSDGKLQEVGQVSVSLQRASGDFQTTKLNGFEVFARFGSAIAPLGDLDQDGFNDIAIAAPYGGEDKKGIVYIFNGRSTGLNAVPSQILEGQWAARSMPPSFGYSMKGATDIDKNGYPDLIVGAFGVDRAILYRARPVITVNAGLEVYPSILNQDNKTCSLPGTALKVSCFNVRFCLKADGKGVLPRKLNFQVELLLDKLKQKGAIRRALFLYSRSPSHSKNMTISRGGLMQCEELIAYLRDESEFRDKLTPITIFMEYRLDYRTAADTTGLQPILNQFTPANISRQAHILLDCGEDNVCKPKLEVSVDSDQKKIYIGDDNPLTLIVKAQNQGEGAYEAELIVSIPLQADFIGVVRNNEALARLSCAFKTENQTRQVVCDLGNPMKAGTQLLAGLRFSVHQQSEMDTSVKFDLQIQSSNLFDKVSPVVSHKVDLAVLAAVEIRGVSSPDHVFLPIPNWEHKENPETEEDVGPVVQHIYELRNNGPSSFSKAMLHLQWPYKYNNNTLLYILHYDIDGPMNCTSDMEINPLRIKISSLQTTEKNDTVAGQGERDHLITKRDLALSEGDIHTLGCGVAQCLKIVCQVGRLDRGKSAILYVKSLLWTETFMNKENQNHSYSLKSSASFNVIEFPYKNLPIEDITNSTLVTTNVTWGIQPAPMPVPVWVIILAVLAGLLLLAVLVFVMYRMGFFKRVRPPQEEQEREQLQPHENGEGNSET
# T1 chain 2: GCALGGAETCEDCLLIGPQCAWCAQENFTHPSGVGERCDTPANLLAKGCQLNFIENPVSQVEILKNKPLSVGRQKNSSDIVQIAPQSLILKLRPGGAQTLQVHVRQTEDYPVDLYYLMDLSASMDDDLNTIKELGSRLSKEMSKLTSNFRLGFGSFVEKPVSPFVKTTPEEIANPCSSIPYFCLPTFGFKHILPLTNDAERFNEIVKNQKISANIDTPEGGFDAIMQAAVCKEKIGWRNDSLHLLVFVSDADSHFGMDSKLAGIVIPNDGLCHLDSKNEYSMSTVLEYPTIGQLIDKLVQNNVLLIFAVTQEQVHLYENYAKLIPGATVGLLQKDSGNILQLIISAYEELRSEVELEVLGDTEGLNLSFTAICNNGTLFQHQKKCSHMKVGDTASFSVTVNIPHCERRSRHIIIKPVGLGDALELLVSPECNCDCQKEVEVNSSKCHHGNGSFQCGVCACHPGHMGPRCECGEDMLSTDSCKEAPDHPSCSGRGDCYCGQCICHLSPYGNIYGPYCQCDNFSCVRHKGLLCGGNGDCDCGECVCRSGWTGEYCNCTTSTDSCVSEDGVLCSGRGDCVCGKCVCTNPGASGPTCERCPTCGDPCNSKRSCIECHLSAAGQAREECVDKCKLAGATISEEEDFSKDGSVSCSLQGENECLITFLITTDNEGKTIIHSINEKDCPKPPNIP
# procedure text: ELISA; competition with latent TGFβ1
Bridge positions count the residues as written; N and C are the ends. Square brackets hold non-standard residues; d marks the D form. Ends that are not written are not given here. Lys(N3) = [N-]=[N+]=NCCCC[C@H](N)C(=O)O; Pra = C#CC[C@H](N)C(=O)O
measured attribute: Ki

- CFETLRGDLRILSILR[Pra]QNL[Lys(N3)]KELQD-NH2 (triazole 17-21) [peptide 5a (chromogranin A-derived peptide)]: 0.139 nM

Where do these numbers come from? They come from paper PMC11889887.
